Values from ChEMBL document CHEMBL5291721

Below are AC50 values recorded for Neuropeptide Y receptor type 1 (Homo sapiens, UniProt P25929).

{"MOLECULE": "C[C@@H]1C[C@H]2[C@@H]3CCC4=CC(=O)C=C[C@]4(C)[C@@]3(F)[C@@H](O)C[C@]2(C)[C@@]1(O)C(=O)CO", "SUBJECT_OF_TEST": "Neuropeptide Y receptor type 1 (Homo sapiens, UniProt P25929)", "AC50": "> 30 µM"}
{"MOLECULE": "CC(CN(C)C)C(C)(O)Cc1ccc(Cl)cc1 (stereo not drawn)", "SUBJECT_OF_TEST": "Neuropeptide Y receptor type 1 (Homo sapiens, UniProt P25929)", "AC50": "> 30 µM"}
{"MOLECULE": "C[C@]12C/C(=C/O)C(=O)C[C@@H]1CC[C@@H]1[C@@H]2CC[C@@]2(C)[C@H]1CC[C@]2(C)O", "SUBJECT_OF_TEST": "Neuropeptide Y receptor type 1 (Homo sapiens, UniProt P25929)", "AC50": "> 30 µM"}
{"MOLECULE": "COc1ccc(CN2CCN(C(c3ccc(F)cc3)c3ccc(F)cc3)CC2)c(OC)c1OC", "SUBJECT_OF_TEST": "Neuropeptide Y receptor type 1 (Homo sapiens, UniProt P25929)", "AC50": "> 30 µM"}
{"MOLECULE": "CC(Cc1cccc(C(F)(F)F)c1)NCCOC(=O)c1ccccc1 (stereo not drawn)", "SUBJECT_OF_TEST": "Neuropeptide Y receptor type 1 (Homo sapiens, UniProt P25929)", "AC50": "> 30 µM"}
{"MOLECULE": "O=C1c2ccccc2C(=O)C1c1ccccc1", "SUBJECT_OF_TEST": "Neuropeptide Y receptor type 1 (Homo sapiens, UniProt P25929)", "AC50": "> 10 µM"}
{"MOLECULE": "C=CC[N+]1([C@H]2C[C@H]3[C@@H]4CC[C@H]5C[C@H](O)[C@@H](N6CCOCC6)C[C@]5(C)[C@H]4CC[C@]3(C)[C@H]2OC(C)=O)CCCC1", "SUBJECT_OF_TEST": "Neuropeptide Y receptor type 1 (Homo sapiens, UniProt P25929)", "AC50": "> 30 µM"}
{"MOLECULE": "COc1cc(C)c(/C=C/C(C)=C/C=C/C(C)=C/C(=O)O)c(C)c1C", "SUBJECT_OF_TEST": "Neuropeptide Y receptor type 1 (Homo sapiens, UniProt P25929)", "AC50": "> 10 µM"}
{"MOLECULE": "CCc1nc(N)nc(N)c1-c1ccc(Cl)cc1", "SUBJECT_OF_TEST": "Neuropeptide Y receptor type 1 (Homo sapiens, UniProt P25929)", "AC50": "> 10 µM"}
{"MOLECULE": "COc1cc2[nH]c(C)c(CCN3CCN(c4ccccc4)CC3)c2cc1OC", "SUBJECT_OF_TEST": "Neuropeptide Y receptor type 1 (Homo sapiens, UniProt P25929)", "AC50": "> 30 µM"}
{"MOLECULE": "COc1ccccc1OC1(C)OC(=O)c2ccccc2O1 (stereo not drawn)", "SUBJECT_OF_TEST": "Neuropeptide Y receptor type 1 (Homo sapiens, UniProt P25929)", "AC50": "> 30 µM"}
{"MOLECULE": "CN(C)CCCN1c2ccccc2CCc2ccccc21", "SUBJECT_OF_TEST": "Neuropeptide Y receptor type 1 (Homo sapiens, UniProt P25929)", "AC50": "> 30 µM"}
{"MOLECULE": "COc1cc(C(=O)OCc2cccc(COC(=O)c3cc(OC)c(OC)c(OC)c3)n2)cc(OC)c1OC", "SUBJECT_OF_TEST": "Neuropeptide Y receptor type 1 (Homo sapiens, UniProt P25929)", "AC50": "> 30 µM"}
{"MOLECULE": "O=C(NCCO[N+](=O)[O-])c1cccnc1", "SUBJECT_OF_TEST": "Neuropeptide Y receptor type 1 (Homo sapiens, UniProt P25929)", "AC50": "> 30 µM"}
{"MOLECULE": "CN(Cc1cnc2nc(N)nc(N)c2n1)c1ccc(C(=O)N[C@@H](CCC(=O)O)C(=O)O)cc1 [METHOTREXATE]", "SUBJECT_OF_TEST": "Neuropeptide Y receptor type 1 (Homo sapiens, UniProt P25929)", "AC50": "> 30 µM"}
{"MOLECULE": "O=C(O)Cc1ccccc1Nc1c(Cl)cccc1Cl", "SUBJECT_OF_TEST": "Neuropeptide Y receptor type 1 (Homo sapiens, UniProt P25929)", "AC50": "> 30 µM"}
{"MOLECULE": "CCOC(=O)c1ccc(C#Cc2ccc3c(c2)C(C)(C)CCS3)nc1", "SUBJECT_OF_TEST": "Neuropeptide Y receptor type 1 (Homo sapiens, UniProt P25929)", "AC50": "> 30 µM"}
{"MOLECULE": "CO/N=C(\\C(=O)N[C@@H]1C(=O)N2C(C(=O)O)=C(CSc3nc(=O)c(=O)[nH]n3C)CS[C@H]12)c1csc(N)n1", "SUBJECT_OF_TEST": "Neuropeptide Y receptor type 1 (Homo sapiens, UniProt P25929)", "AC50": "> 30 µM"}
